- assay.explanation: amyloid nucleation score (Sup35N fusion, yeast selection) (log enrichment); library NNK2; higher = more nucleation; inactive = no reads after selection;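 also: zero at mode of non-aggregating sequences after 7 days selection at 30°C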
Response field class: string, computed from recorded amyloid nucleation score by ranges label 0 = under -0.2, label 1 = from -0.2 up to 0.7, label 2 = 0.7 and over

[ask] Input PSDMHSNNLA ; output its category
[reply] label 0

[ask] The entry to classify is MTMFTCMWVNRER ; which class holds it?
[reply] label 2

[ask] Which category fits this record: AIVSMFGVITY
[reply] label 0

[ask] In plain terms, what class is WQHGVRSGQQECPRLEGNRV ?
[reply] label 1

[ask] Category of KNRRFT , please.
[reply] label 0

[ask] Exercise: read the entry KVYSKCFNGFRS and state which class it falls under.
[reply] label 1

[ask] Lab note: sort SYSPSVQ into the matching amyloid nucleation score band.
[reply] label 1

[ask] Textbook exercise: identify the category of the substance given here, LSNWSPFYMLHQSISFCSRS , according to its measured value.
[reply] label 2

[ask] Which bin should I file CNCQMGDVLEGLGDVGLNNF under?
[reply] label 0

[ask] Class (by measured amyloid nucleation score) for AVIVAIFCSSGYYRHFYTFT
[reply] label 0

[ask] Just checking, what class would you give VTHNYKFIQLGSEK here?
[reply] label 2

[ask] Please report the category associated with LDAGCRMYWGVRLEFRICNL , nothing else.
[reply] label 2

[ask] Please let me know in which category the item SDGARLWR belongs.
[reply] label 1

[ask] Lab log: TTLMWVWFIGFWP — assign amyloid nucleation score category
[reply] label 2

[ask] State the class of the substance shown: SRICLLTYMGSIINRDVSVY
[reply] label 0

[ask] Textbook exercise: identify the category of the substance given here, VDVFGVCRRSVYVA , according to its measured value.
[reply] label 2

[ask] Assign a category based on measured amyloid nucleation score for KNNSFWGISLTGLLGYIYTR and give only the class name.
[reply] label 0

[ask] Bin? FLVFVLLGDR
[reply] label 2

[ask] Band for the recorded amyloid nucleation score of LICSHTLIRVYVKFF ?
[reply] label 2

[ask] Note: place this substance into its band. Item: VLRKEFVYSGCWAKRRLG
[reply] label 1

[ask] Assign a bin to IHDELSRCRC
[reply] label 0

[ask] For HFSLAC , which amyloid nucleation score bin applies?
[reply] label 0

[ask] The entry to classify is CVSVAFNRNISWW ; which class holds it?
[reply] label 1

[ask] // bin(item) where item = PGILDNRLGKQGAGLDLRWH
[reply] label 2

[ask] Which class holds RLYPLIVQFFMVCKT ?
[reply] label 2

[ask] Into which category would you place VLDHDGVVVWNFFPHMYSDP ?
[reply] label 2

[ask] # bin lookup: classify FKVRIVGPLTAGMVE by its amyloid nucleation score
[reply] label 0

[ask] Bin this entry: SLLNQLIKRNKSNAYVVHGI
[reply] label 0

[ask] Exam item: assign ESVRASPV to the correct category.
[reply] label 1

[ask] Kindly state the category for this substance: IHWNKIMRFTFKYGILLYPS
[reply] label 0

[ask] Looking at VLRGPS , which class would you pick?
[reply] label 1

[ask] GET /class?item= VRGSATEFTILVVVVVLGKR
[reply] label 1

[ask] Textbook exercise: identify the category of the substance given here, MSMYDAAIEFLLRCGYVRSY , according to its measured value.
[reply] label 1
